Target: T1, 4H3162-AA
T1 chain: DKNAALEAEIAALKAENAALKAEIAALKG
Assay: two-hybrid library CCmax;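 note: natural log of median RNA to DNA barcode read ratio; higher means stronger binding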
Conditions: mean of both orientations
measured.quantity: interaction score

                                     binder  measured_quantity  numeric_value
0  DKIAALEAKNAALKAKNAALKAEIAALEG [4H2553-AA]  interaction score           -1.5
1  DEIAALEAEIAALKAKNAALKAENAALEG [4H123-AA]  interaction score          -1.32
2  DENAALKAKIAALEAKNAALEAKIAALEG [4H1845-AA]  interaction score          -1.73
